Tested on: HIV-1 NDK
Assay: HIV-1 infection of C8166 cells (syncytia formation, p24 ELISA) with HIV-1 NDK
Assay type: cell-based
Design: key: ++, +, (+), (+)− and − represent decreasing numbers of syncitia formed; ++, +, (+), (+)− and − represent decreasing numbers of syncitia formed; ++, +, (+), (+)− and − represent decreasing numbers of syncitia formed; ++, +, (+), (+)− and − represent decreasing numbers of syncitia formed; ++, +, (+), (+)− and − represent decreasing numbers of syncitia formed
Conditions: 0.1 μM, Day 5
Experimental: HIV-1 NL 4-3 isolate (Adachi et al., 1986; Barré-Sinoussi et al., 1983) and highly cytopathic Zairian HIV-1 NDK isolate (Ellrodt et al., 1984) was propagated in permissive CEM cells (Nara et al., 1987). […] Samples of 3×10^5/100 μL C8166 cells were preincubated in 96-well microtiter plates in culture medium containing various concentrations of peptide. […] Toxicity was evaluated by daily cell count and trypan-blue exclusion assay. […]
Square brackets hold non-standard residues; d marks the D form. Peptide text beside a SMILES is read from it. Ava = NCCCCC(=O)O

>  <MOLECULE>
C[C@H](NC(=O)[C@H](CCCNC(=N)N)NC(=O)CNC(=O)[C@@H]1CCCN1C(=O)CN)C(=O)NCCCCC(=O)O [GPGRA valeric acid, GPGRA-NHCH2CH2CH2CH2COOH] (H-GPGRA[Ava]-OH; N-terminus assumed)

>  <syncitia formed, Day 5>
(+)

$$$$
>  <MOLECULE>
NCC(=O)N1CCC[C@H]1C(=O)NCC(=O)NCCCCC(=O)O [GPG valeric acid, GPG-NHCH2CH2CH2CH2COOH] (H-GPG[Ava]-OH; N-terminus assumed)

>  <syncitia formed, Day 5>
−

$$$$
>  <MOLECULE>
N=C(N)NCCC[C@H](NC(=O)CNC(=O)[C@@H]1CCCN1C(=O)CN)C(=O)NCCCCC(=O)O [GPGR valeric acid, GPGR-NHCH2CH2CH2CH2COOH] (H-GPGR[Ava]-OH; N-terminus assumed)

>  <syncitia formed, Day 5>
(+)

$$$$
>  <MOLECULE>
NCC(=O)N1CCC[C@H]1C(=O)NCC(=O)O [GPG, reference compound] (H-Gly-Pro-Gly-OH)

>  <syncitia formed, Day 5>
+

$$$$
